System: MDA-MB-435
Assay: NCI tumour cell line growth inhibition, 48 h
Active and inactive are the calls of the source. Cut-off read from the data, not from the text of the source: active = GI50 up to about 1.1 µM and inactive = higher.
Readout type: GI50

GI50 measured on CCOC(=O)c1nc2ccc(C(F)(F)F)cc2nc1Oc1ccc(C(=O)OC)cc1 = 71.1 µM (inactive)

* * *

Test system: TK-10
Assay: NCI tumour cell line growth inhibition, 48 h
Calls of active or inactive are those of the source. No stated cut-off is given here; in the data, active = GI50 up to about 1.1 µM and inactive = higher.
Choose one outcome from this list and give only that: T = active, F = inactive

Worked examples, 6 compounds total:
| Compound | Category |
| --- | --- |
| OC1c2ccccc2C2(O)C1C(c1ccccc1)C(c1ccccc1)C2(O)c1ccccc1 (stereo unspecified) | F |
| CNC(=O)c1nnn(Cc2ccccc2)c1S | F |
| COC(=O)c1ccccc1C1CN=NC12Cc1c(C)c3c(c(C)c1C2=O)CCC3 (stereo unspecified) | F |
| COc1ccc(/C=C/C(=O)OC2CC34CCNC35CC(OC5(OC)C2OC)c2ccc(OC)c(O)c24)cc1O (stereo unspecified) | F |
| CC1CN(c2ccc(Cl)cc2)CC(C)(C)OC(=O)O1 (stereo unspecified) | F |
| Nc1nc(Cl)c(/C=N\O)c(NCC2(CO)CC(=O)C2)n1 | F |

input: Test call for this compound, please: Cc1ccc(-c2n[nH]c(=O)n2N2C(=O)c3ccccc3C2=O)cc1
output: F

input: Test call for this compound, please: COc1cc([C@@H]2c3cc4c(cc3[C@@H](Nc3ccc(NC(=O)c5cc([N+](=O)[O-])cn5C)cc3)[C@H]3COC(=O)[C@H]23)OCO4)cc(OC)c1O
output: T

input: Test call for this compound, please: CC(=O)OCC1OC(N2C(=O)C(=O)c3cc(C)ccc32)C(OC(C)=O)C(OC(C)=O)C1OC(C)=O (stereo unspecified)
output: F

input: Test call for this compound, please: Nc1ccc(-c2nc3ccccc3s2)cc1
output: F

input: Test call for this compound, please: CCCC(C(=O)Nc1cccc2nc[nH]c12)C(=O)OCC (stereo unspecified)
output: F

input: Test call for this compound, please: CC1=C(C#N)c2nc3ccccc3n2C(=O)C1(C)CCO (stereo unspecified)
output: F

* * *

# GI50 per entry
System: EKVX
Test: NCI tumour cell line growth inhibition, 48 h
Calls of active or inactive are those of the source. No stated cut-off is given here; in the data, active = GI50 up to about 1.1 µM and inactive = higher.

Solved entries (count: 3):
| Structure smiles string | GI50 |
| --- | --- |
| Cc1ccc2c(C(=O)c3c(C)n(CCN4CCOCC4)c4ccccc34)cccc2c1 | 20.5 µM (inactive) |
| O=C(CCCCCCCCCCc1ccccc1)c1c(O)cccc1O | 21.3 µM (inactive) |
| CCc1nnc(CC)n1-n1c(Cc2ccccc2)n[nH]c1=O | > 100 µM (inactive) |

GI50 measured on C[N+](C)(C)CC(=O)N/N=C(/Cc1nc2c3c(ccc2nc1O)C(=O)c1ccccc1C3=O)C(=O)Nc1ccc(Cl)c(Cl)c1 = 13.1 µM (inactive)

* * *

Tested on: TK-10
Experiment: NCI tumour cell line growth inhibition, 48 h
Activity calls are given as the source filed them. Rule as the data show it: active = GI50 up to about 1.1 µM and inactive = higher.
# GI50 per entry

Solved entries (count: 5):
| Compound | GI50 |
| --- | --- |
| CCOC(=O)/C(=C/c1ccc(C(F)(F)F)cc1)N(CC)CC | > 100 µM (inactive) |
| CCc1nc(N)c2nc(-c3ccc(C#N)cc3)oc2n1 | > 100 µM (inactive) |
| COc1ccc(N2C(=O)C3c4[nH]c5ccccc5c4C4CCCCCCC4C3C2=O)cc1 (stereo unspecified) | 20.1 µM (inactive) |
| O=C(Cn1c(=O)oc2ccc(C(=O)c3ccc(F)cc3)cc21)c1ccc([N+](=O)[O-])cc1 | 36.6 µM (inactive) |
| Oc1nc2nnc(COc3ccc(Cl)cc3Cl)n2nc1Cc1ccccc1 | 34.6 µM (inactive) |

Please look at the following compound next.
GI50 measured on COC(=O)c1cccc2c1Oc1ccccc1S2 = > 100 µM (inactive)
